Compiled from multiple publications: IC50 readings for Prostaglandin G/H synthase 1 (Ovis aries, UniProt P05979).
endpoint label: IC50

1) CS(=O)(=O)c1ccc(-c2ccccc2-c2ccncc2)cc1    > 300 µM
2) COC(=O)[C@H](Cc1ccc(O)cc1)n1cc(COc2nc(Cl)nc(N3CCCC3)n2)nn1    > 10 µM
3) COc1ccc2c(c1)c(CC(=O)Oc1cccc3ccccc13)c(C)n2C(=O)c1ccc(Cl)cc1    > 66 µM

----------
pIC50: −log10 of the molar value.
// read-out pIC50, gathered for Prostaglandin G/H synthase 1 (Ovis aries, UniProt P05979) from published studies
endpoint label: pIC50

1) Fc1ccc(Nc2nc(-c3ccc(Cl)cc3)nc3sc4c(c23)CCCC4)cc1    5.24
2) COc1ccc(N2C(=O)c3ccccc3SC2c2ccc(S(C)(=O)=O)cc2)cc1 (centres undefined)    4.83
3) CC(C)COc1cc(-c2ccc(F)cc2)c(-c2ccc(S(C)(=O)=O)cc2)c(=O)o1    4.37
4) O=C1NC(=S)S/C1=C\c1ccc(OCc2cn(CC(=O)c3ccc(Cl)cc3)nn2)cc1    4.91
5) O=[N+]([O-])c1ccc(/C=N/c2nnc(-c3ccccc3)o2)cc1    5.01
6) O=C1COCCN1c1ccc(Nc2nc(Cl)nc(OCc3cn(Cc4ccccc4)nn3)n2)cc1    5.22
7) NS(=O)(=O)c1ccc(-n2cc(-c3ccc(Cl)cc3)nn2)cc1    4.68
8) Oc1ccc(-c2nc(-c3ccc(O)cc3Cl)cn2-c2ccc(O)cc2)cc1    5.08
9) COc1cc(/C=C/C(=O)O)ccc1OC/C=C(\C)CCC=C(C)C    4.27
10) COc1ccc(-c2nc(NCC(=O)N3CCCCC3)sc2-c2ccc(OC)cc2)cc1    5.22
11) O=C(Nc1ccccc1)Nn1c(CO[N+](=O)[O-])nc2ccccc2c1=O    4.61
12) Cc1ccc(C2=NOC3(Cc4ccccc4C3=O)C2c2ccc(S(C)(=O)=O)cc2)cc1 (centres undefined)    4.99

----------
Field: IC50. System: Prostaglandin G/H synthase 1 (Ovis aries, UniProt P05979). Provenance: assorted publications.
- target entity: Prostaglandin G/H synthase 1 (Ovis aries, UniProt P05979)
- Sequence (P05979 whole entry): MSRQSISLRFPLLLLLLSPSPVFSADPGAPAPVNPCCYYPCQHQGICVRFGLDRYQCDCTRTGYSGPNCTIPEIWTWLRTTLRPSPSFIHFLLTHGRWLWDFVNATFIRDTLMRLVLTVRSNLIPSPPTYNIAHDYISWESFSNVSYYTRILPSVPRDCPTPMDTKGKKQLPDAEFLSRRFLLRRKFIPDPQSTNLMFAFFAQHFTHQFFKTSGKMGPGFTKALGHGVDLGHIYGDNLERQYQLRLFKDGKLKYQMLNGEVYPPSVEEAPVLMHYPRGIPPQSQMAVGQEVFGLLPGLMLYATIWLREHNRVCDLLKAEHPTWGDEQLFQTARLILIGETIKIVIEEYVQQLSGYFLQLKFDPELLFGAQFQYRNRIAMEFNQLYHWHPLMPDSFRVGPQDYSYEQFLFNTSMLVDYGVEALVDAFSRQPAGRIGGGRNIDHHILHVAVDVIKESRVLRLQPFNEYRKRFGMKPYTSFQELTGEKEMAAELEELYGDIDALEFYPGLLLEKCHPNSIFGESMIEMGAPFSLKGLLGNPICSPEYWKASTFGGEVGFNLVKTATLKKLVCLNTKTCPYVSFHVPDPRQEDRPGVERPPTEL
endpoint label: IC50

1. Cc1nn(-c2ccc(F)cc2)c2c1c(=O)oc1ccccc12    > 30 µM
2. O=C(O)Cn1c2c(c3cc(Cl)ccc31)CN(C(=O)c1cccc3ccccc13)CC2    > 10 µM
3. N#CC1=C(N)N=C2SC(=S)NN2C1c1ccc(Cl)cc1 (centres undefined)    > 50 µM
4. COC(=O)c1onc(-c2ccc(F)cc2)c1-c1ccc(S(C)(=O)=O)cc1    > 100 µM

----------
- target entity: Prostaglandin G/H synthase 1 (Ovis aries, UniProt P05979)
- Sequence (P05979 whole entry): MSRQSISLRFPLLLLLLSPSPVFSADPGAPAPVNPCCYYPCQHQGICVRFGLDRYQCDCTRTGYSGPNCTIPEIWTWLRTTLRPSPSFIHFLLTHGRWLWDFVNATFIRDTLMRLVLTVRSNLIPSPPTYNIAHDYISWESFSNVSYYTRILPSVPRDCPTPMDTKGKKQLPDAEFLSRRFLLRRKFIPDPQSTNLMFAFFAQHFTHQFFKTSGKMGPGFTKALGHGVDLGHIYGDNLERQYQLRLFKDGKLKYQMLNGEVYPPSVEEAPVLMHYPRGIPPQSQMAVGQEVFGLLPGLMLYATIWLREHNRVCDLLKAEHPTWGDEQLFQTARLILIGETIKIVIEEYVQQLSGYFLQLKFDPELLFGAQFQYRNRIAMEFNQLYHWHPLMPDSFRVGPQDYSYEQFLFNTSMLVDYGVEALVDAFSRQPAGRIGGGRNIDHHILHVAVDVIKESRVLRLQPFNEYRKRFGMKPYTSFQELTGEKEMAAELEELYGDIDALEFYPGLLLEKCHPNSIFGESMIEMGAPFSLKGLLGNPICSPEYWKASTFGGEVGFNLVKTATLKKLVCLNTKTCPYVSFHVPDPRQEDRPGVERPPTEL
Compiled IC50 measurements on Prostaglandin G/H synthase 1 (Ovis aries, UniProt P05979) taken from the literature.
endpoint label: IC50

1) CS(=O)(=O)c1ccc(-c2cc(CC#N)sc2-c2ccc(F)cc2)cc1    > 300 µM
2) COc1cccc(Oc2cc([N+](=O)[O-])ccc2NS(C)(=O)=O)c1    > 100 µM
3) NS(=O)(=O)c1ccc(N2N=C(C(F)(F)F)CC2c2c[nH]c3ccc(F)cc23)cc1 (centres undefined)    > 100 µM
4) CCCCCCC(Sc1nc(Cl)cc(Nc2cccc(C)c2C)n1)C(=O)OCC (centres undefined)    > 10 µM
5) O=C1OCC(c2ccccc2)=C1c1cccc(F)c1    > 25 µM
6) N#CC1=C(N)N=C2SC(=S)NN2C1c1ccc(Br)cc1 (centres undefined)    > 50 µM
7) N#CC1=C(N)N=C2SC(=S)NN2C1c1ccc([N+](=O)[O-])cc1 (centres undefined)    > 50 µM
8) N#CC(C#N)=Cc1c(C(F)(F)F)nn(-c2ccccc2)c1-c1ccc(Cl)cc1    > 50 µM
9) Cc1cccc2c3c(n(CC(=O)O)c12)CCN(C(=O)c1ccccc1)C3    > 10 µM
10) CCCOCCCSc1ccccc1OC(C)=O    > 50 µM
11) COC(=O)c1cc(-c2ccc(I)cc2)n(-c2ccc(S(N)(=O)=O)cc2)n1    > 4 µM
12) CS(=O)(=O)c1ccc(-c2ccsc2-c2ccccc2)cc1    > 1000 µM
13) COc1ccc2c(c1)c(CC(=O)Oc1ccc(CCO)cc1)c(C)n2C(=O)c1ccc(Cl)cc1    > 100 µM
14) CCCC/C(=C\c1cc(OCc2cc(C(F)(F)F)cc(C(F)(F)F)c2)ccc1OCc1ccc(C(F)(F)F)cc1)C(=O)O    > 10 µM

----------
- target entity: Prostaglandin G/H synthase 1 (Ovis aries)
- Sequence (P05979 whole entry): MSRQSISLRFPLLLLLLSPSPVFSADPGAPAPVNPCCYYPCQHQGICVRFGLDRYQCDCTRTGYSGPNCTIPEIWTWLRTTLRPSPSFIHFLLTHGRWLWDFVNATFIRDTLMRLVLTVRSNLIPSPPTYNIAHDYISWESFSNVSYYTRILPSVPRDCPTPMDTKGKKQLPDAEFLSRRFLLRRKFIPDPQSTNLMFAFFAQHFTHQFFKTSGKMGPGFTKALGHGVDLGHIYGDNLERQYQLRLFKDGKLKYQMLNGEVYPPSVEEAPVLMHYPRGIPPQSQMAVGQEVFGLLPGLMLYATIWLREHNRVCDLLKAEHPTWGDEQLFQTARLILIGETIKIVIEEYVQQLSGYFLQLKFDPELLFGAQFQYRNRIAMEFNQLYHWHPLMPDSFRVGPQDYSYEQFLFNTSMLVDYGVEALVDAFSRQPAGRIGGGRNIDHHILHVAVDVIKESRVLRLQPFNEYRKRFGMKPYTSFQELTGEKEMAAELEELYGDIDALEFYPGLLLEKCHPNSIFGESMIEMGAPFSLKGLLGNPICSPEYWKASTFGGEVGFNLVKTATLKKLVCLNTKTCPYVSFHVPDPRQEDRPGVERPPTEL
pIC50: −log10 of the molar value.
Listing of pIC50 toward Prostaglandin G/H synthase 1 (Ovis aries), each taken from a published source.
endpoint label: pIC50

1) Cc1ccc(S(=O)(=O)n2cc(C(=O)C(=O)N[C@@H](Cc3cnc[nH]3)C(=O)N[C@@H](CCC(=O)O)C(=O)O)c3ccccc32)cc1    4.89
2) COc1ccc(-c2nc(-c3ccc(S(C)(=O)=O)cc3)c(-c3ccccc3)[nH]2)cc1    4.98
3) COC(=O)[C@H](Cc1c[nH]c2ccccc12)NC(=O)CNC(=O)C(=O)c1cn(S(=O)(=O)c2ccc(C)cc2)c2ccccc12    4.04
4) CS(=O)(=O)Nc1ccc(-c2cc(C(F)(F)F)nn2-c2ccccc2)cc1    4.07
5) CC(=O)c1cccc(OC(=O)c2c(-c3ccccc3)sc3c2CCCC3)c1    4.53
